Provide the reported MFI (Max) of each item.
Molecular target: T1, human CD276 protein (human, UniProt Q5ZPR3 29-534)
T1 construct: whole, on cells; for SKOV3 and the other cancer lines the protein is the cells' own; also called B7-H3; B7H3
T1 sequence (looked up): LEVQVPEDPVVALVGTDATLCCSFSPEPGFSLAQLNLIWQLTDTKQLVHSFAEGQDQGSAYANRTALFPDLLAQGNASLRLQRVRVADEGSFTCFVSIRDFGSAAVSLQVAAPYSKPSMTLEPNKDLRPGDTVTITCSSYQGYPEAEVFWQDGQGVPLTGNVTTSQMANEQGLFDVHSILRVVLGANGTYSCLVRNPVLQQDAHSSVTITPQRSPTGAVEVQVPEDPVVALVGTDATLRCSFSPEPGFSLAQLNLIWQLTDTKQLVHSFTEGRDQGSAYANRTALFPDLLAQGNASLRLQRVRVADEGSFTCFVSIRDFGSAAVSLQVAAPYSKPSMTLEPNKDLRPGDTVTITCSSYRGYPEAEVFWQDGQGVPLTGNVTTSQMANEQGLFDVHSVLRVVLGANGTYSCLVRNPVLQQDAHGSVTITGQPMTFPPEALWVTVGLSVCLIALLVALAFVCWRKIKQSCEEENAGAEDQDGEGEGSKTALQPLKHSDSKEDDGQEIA
Assay: FACS on SKOV3 cells
Number, no unit, nothing else.

For 27-F8-E10-E11 (human IgG1 chimeric antibody) (antibody, V domains shown, human IgG1 chimeric antibody of the mouse clone) VH: EVQLQQSGPELVKPGASVKISCKTSGYTFTEYAMHWVKQSHGKILEWIGGINPNIGGTTYNQKFKDKATLTVDKSSSTASMELRSLTSEDSAVYYCARFLVPSTEGFTYWGQGTLVTVSA VL: QIVLTQSPAIMSASPGEKVTMTCSASSSVSYMHWYQQKSGTSPKRWIYDTSRVASGVPARFSGSGSGTSYSLTISSMEAEDAATYYCQQWSSNPLTFGAGTKLELK , write its MFI (Max).
3220

Retrieve MFI (Max) measured for 8-C3-E3-F3 (human IgG1 chimeric antibody) (antibody, V domains shown, human IgG1 chimeric antibody of the mouse clone) VH: EVQLVESGGGLVQPGGSLKLSCAASGFTFSNYGLSWVRLTPDKRLEVVATIGSYGGNTYYPDSVKGRFTISRDNAKNTLYLQMSSLKSEDTAIYYCARDIYYGNSEAWFAYWGQGTLVTVSA VL: DIVMTQAAFSNPVTLGTSASISCRSSKSLLHSNGITYLYWYLQKPGQSPQLLIYQMSNLASGVPDRFSSSGSETDFTLRISRVEAEDVGVYYCAQNLELPWTFGGGTKLEIK and print it.
2880

Give recorded MFI (Max). 23-F10-G4-F11 (human IgG1 chimeric antibody) (antibody, V domains shown, human IgG1 chimeric antibody of the mouse clone) VH: EVQLQESGPDLVRPGALVKLSCKSSGFNIKDYPIHWVRQRPEQGLEWIGWFDPDNGNVIYDPRFQGKASITADTSSNTAYLQLNSLTSEDTAVYYCSSPYGAMDYWGQGTSVTVSS VL: QIVLTQSPEIMSASPGEKVTMTCSASSSVSYIHWYQQKSGTSPKRWIYDTSKLASGVPARFSGSGSGTSYSLTIRSMEAEDAATYYCQQGSSNPRTFGGGTKLEIK
6720

Please supply the value of reported MFI (Max) for the item 30-E2-G7-G7 (human IgG1 chimeric antibody) (antibody, V domains shown, human IgG1 chimeric antibody of the mouse clone) VH: EVQLQESGGGLVKPGGSLKLSCAASGFTFSYYAMSWVRQTPEKRLEWVATINGDGSHTYYPDSVRGRFTISRDNAKNTLYLQVSSLRSEDTAMYYCASLLQLGPFWGQGTTLTVSS VL: DIVMTQSQKFMSTSVGDRVSVTCKASQNVGTNVAWYHQRPGQSPKPLIYSASYRYSGVPDRFTGSGSGTDFTLTISNVQSEDLAEYFCQQYNNYPLTFGSGTKLEIK
5630

Fill in reported MFI (Max) for this entry: 11-G10-B4-B11 (human IgG1 chimeric antibody) (antibody, V domains shown, human IgG1 chimeric antibody of the mouse clone) VH: DVQLQESGPGLVKPSQSLSLTCTVTGYSITSDYAWNWIRQFPGNKLEWMGYISYSGSTSYNPSLKSRISITRDTSKNQFFLQLNSVTTEDTATYYCARGGPWFAYWGQGTLVTVSA VL: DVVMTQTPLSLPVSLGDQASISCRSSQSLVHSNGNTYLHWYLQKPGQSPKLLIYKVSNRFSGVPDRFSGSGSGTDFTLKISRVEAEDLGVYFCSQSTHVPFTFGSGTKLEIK
3750

Entry 15-G1-D1-E3 (human IgG1 chimeric antibody) (antibody, V domains shown, human IgG1 chimeric antibody of the mouse clone) VH: QVQLQQPGAELVKPGTSVKLSCKASGYTFTSYWIHWVKQRPGQGLEWIGMIHPKSGTVDYNEKFKSKATLTADKSSNTAYMQLSSLTSEASVVYYCARGENYDYRPQFVYWGQGTLVTVSA VL: QLVLTQSSSASFSLGASAKLTCTLSSQHSTYTIEWYQQQPLKPPKYVMELKKDGSHRTGDGIPDRFSGSSSGADRYLSISNIQPEDEAIYICGVGDTIKEQFVYVFGGGTKVTVL needs its MFI (Max) filled in; supply it.
3190

Answer with the recorded MFI (Max) of 20-F8-B5-G2 (human IgG1 chimeric antibody) (antibody, V domains shown, human IgG1 chimeric antibody of the mouse clone) VH: EVQLQESGPSLVKPSQTLSLTCSVTGDSITSAYWNWIRKFPGNKLEYMGYISNSGSTYYNPSLKSRISITRDTSKNQYYLQLNSVTTEDTGTYYCVRGERYYGYGAYWGQGTLVTVSA VL: DIVMTQATPSVPVTPGESISISCRSSKSLLHSNGNTYLYWFLQRPGQSPQLLIYRMSNLASGVPDRFSGSGSGTAFTLRISRVEAEDVGVYYCMQHLEYPFTFGAGTKLELK only.
3010

Output MFI (Max) of 10-B9-D10-A12 (human IgG1 chimeric antibody) (antibody, V domains shown, human IgG1 chimeric antibody of the mouse clone) VH: EVQLQESGPELVRPGVSVKISCKGSGYTFTDYTMHWVKLSHAKSLEWIGVISTYYGNTNYNQKFKGKATLTVDKSSSTAYMELARLTSEDSAIYYCARASYGSGYGPYYWYFDVWGAGTTVTVSS VL: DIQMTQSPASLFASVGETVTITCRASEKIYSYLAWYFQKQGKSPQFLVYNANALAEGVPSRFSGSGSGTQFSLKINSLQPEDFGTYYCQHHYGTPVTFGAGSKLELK
3880

Give MFI (Max) for MGC018 (antibody, V domains shown) VH: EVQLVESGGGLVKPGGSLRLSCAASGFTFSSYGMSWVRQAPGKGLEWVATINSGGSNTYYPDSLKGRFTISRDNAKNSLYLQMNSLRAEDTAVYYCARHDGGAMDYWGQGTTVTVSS VL: DIQMTQSPSSLSASVGDRVTITCRASESIYSYLAWYQQKPGKAPKLLVYNTKTLPEGVPSRFSGSGSGTDFTLTISSLQPEDFATYYCQHHYGTPPWTFGQGTRLEIKR
2540

Answer with the recorded MFI (Max) of 16-G3-D10-C10 (human IgG1 chimeric antibody) (antibody, V domains shown, human IgG1 chimeric antibody of the mouse clone) VH: QIQLVQSGPELKKPGETVKISCKASGYTFRNYGMNWVKQGPGKDLKWMGWINPYTGEPTYIGDFKGRFAFSLETSANSAYLQINNLNNEDMATYFCARDDGYWYTMDYWGQGTSVTVSS VL: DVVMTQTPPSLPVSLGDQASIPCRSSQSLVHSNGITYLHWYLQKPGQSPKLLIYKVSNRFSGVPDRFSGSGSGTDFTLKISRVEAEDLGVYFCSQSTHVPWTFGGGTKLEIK only.
3180

Data credit: patent US20240400689A1
